Values from paper PMC7177833

- TARGET_OR_SYSTEM: ICLPa (Pseudomonas aeruginosa, UniProt Q9I0K4)
- Sequence (Q9I0K4 whole entry): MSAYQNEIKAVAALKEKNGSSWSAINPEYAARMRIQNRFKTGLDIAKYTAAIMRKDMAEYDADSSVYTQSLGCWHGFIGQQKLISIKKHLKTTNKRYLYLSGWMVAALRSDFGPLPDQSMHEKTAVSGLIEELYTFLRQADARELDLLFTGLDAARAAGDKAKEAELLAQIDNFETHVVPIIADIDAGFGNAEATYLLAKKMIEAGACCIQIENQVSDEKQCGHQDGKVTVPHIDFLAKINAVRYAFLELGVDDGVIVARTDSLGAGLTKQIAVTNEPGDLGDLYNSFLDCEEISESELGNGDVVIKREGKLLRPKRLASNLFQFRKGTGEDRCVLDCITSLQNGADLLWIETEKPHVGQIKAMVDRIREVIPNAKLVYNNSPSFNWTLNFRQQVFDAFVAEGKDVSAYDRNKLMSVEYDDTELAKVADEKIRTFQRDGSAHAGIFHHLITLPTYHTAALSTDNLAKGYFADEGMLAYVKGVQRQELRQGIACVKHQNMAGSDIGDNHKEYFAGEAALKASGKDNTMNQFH
- METHOD_DESCRIPTION: Isothermal titration calorimetry, ICLPa
- TEST_PARAMETERS: ITC, 25 °C, reverse titration, ICLPa
pKd: −log10 of the molar value.

{"MOL": "CC(C)(C)OC(=O)/N=C(\\NC(=O)OC(C)(C)C)Nc1cc(Cl)ccn1", "pKd": 5.84}

====

- TARGET_OR_SYSTEM: MSPa (malate synthase G from P. aeruginosa) (Pseudomonas aeruginosa, UniProt Q9I636)
- Construct: made in house
- Sequence (Q9I636 whole entry): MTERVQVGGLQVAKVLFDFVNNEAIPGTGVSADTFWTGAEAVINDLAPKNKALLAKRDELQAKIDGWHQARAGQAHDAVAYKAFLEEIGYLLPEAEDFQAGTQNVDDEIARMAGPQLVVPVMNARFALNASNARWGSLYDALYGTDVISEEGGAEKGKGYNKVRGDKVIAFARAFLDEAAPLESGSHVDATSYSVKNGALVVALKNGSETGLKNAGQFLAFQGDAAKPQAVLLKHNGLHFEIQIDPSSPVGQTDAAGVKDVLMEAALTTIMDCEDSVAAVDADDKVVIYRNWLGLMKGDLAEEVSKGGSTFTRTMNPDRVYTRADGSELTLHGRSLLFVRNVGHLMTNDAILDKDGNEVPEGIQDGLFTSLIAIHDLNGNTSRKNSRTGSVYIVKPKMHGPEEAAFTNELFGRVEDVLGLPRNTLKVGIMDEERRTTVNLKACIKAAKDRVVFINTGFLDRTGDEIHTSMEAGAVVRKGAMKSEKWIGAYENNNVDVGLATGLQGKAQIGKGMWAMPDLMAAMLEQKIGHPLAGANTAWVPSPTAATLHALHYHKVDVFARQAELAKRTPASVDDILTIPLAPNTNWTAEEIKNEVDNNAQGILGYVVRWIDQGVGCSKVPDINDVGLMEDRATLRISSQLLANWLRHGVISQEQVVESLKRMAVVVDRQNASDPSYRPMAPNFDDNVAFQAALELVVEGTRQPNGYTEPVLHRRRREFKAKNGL
- METHOD_DESCRIPTION: Inhibition of purified MSPa enzymatic activity
- Assay type: biochemical
- TEST_PARAMETERS: 75 µM compound; read-out: Enzyme Inhibition (%) at 75 µM MSPa
Reported inhibition at 75 µM by item:
RESULT_TYPE: inhibition at 75 µM (%)

{"MOLECULE": "Nc1cc(Cl)ccn1 [Compound 2-AP, 2-amino-4-chloropyridine, reference compound]", "INEQUALITY_SIGN": "=", "MEASURED": 18.2}
{"MOLECULE": "CC(C)(C)OC(=O)/N=C(\\NC(=O)OC(C)(C)C)Nc1cc(Br)ccn1 [SB001]", "INEQUALITY_SIGN": "=", "MEASURED": 16.2}
{"MOLECULE": "CC(C)(C)OC(=O)/N=C(\\NC(=O)OC(C)(C)C)Nc1ccnc(Cl)c1 [SB032]", "INEQUALITY_SIGN": "=", "MEASURED": 48.7}
{"MOLECULE": "CC(C)(C)OC(=O)/N=C(\\NC(=O)OC(C)(C)C)Nc1cc(C#N)ccn1 [SB023]", "INEQUALITY_SIGN": "=", "MEASURED": 90.4}
{"MOLECULE": "CC(C)(C)OC(=O)/N=C(\\NC(=O)OC(C)(C)C)Nc1cc(C(F)(F)F)ccn1 [SB022]", "INEQUALITY_SIGN": "=", "MEASURED": 0}
{"MOLECULE": "CC(C)(C)OC(=O)/N=C(\\NC(=O)OC(C)(C)C)Nc1cc(F)ccn1 [SB026]", "INEQUALITY_SIGN": "=", "MEASURED": 55.1}
{"MOLECULE": "COC(=O)c1ccnc(N/C(=N/C(=O)OC(C)(C)C)NC(=O)OC(C)(C)C)c1 [SB029]", "INEQUALITY_SIGN": "=", "MEASURED": 0}
{"MOLECULE": "CC(C)(C)OC(=O)/N=C(\\NC(=O)OC(C)(C)C)Nc1cc(Cl)ccn1 [SB002]", "INEQUALITY_SIGN": ">", "MEASURED": 90}

====

Measured IC50 at 3.5 h by item
- METHOD_DESCRIPTION: CytoTox 96 LDH release cytotoxicity assay, U937
- Type: cell-based, human
- TEST_PARAMETERS: human; U937 cells, LDH release
RESULT_TYPE: IC50 at 3.5 h

{"MOL": "CC(C)(C)OC(=O)/N=C(\\NC(=O)OC(C)(C)C)Nc1cc(Cl)ccn1", "RESULT_TYPE": "IC50 at 3.5 h", "MEASURED": "18.2 µM"}
{"MOL": "CC(C)(C)OC(=O)/N=C(\\NC(=O)OC(C)(C)C)Nc1cc(C#N)ccn1", "RESULT_TYPE": "IC50 at 3.5 h", "MEASURED": "3220 µM"}
